System: antibodies of the invention (antisera generated in response to immunogen of Example 5)
Assay: Competitive chemiluminescent biochip immunoassay, antiserum raised against immunogen of Example 5, HRP conjugate of Example 6
Format: binding, sheep
Settings: value is the concentration at which no cross-reactivity was exhibited
RESULT_TYPE: No measurable CR at given concentration (µg/mL)
The response must be a number in µg/mL with no trailing unit.

Some solved cases for reference:
[
  {
    "COMPOUND": "Clc1cccc(N2CCNCC2)c1",
    "TESTED_SYSTEM": "antibodies of the invention (antisera generated in response to immunogen of Example 5)",
    "No measurable CR at given concentration [µg/mL]": 10
  },
  {
    "COMPOUND": "N[C@H]1CC[C@@H](c2ccc(Cl)c(Cl)c2)c2ccccc21",
    "TESTED_SYSTEM": "antibodies of the invention (antisera generated in response to immunogen of Example 5)",
    "No measurable CR at given concentration [µg/mL]": 10
  },
  {
    "COMPOUND": "CNCCC=C1c2ccccc2CCc2ccccc21",
    "TESTED_SYSTEM": "antibodies of the invention (antisera generated in response to immunogen of Example 5)",
    "No measurable CR at given concentration [µg/mL]": 10
  },
  {
    "COMPOUND": "COc1cccc(C2(O)CCCCC2CN(C)C)c1 (stereo not drawn)",
    "TESTED_SYSTEM": "antibodies of the invention (antisera generated in response to immunogen of Example 5)",
    "No measurable CR at given concentration [µg/mL]": 10
  },
  {
    "COMPOUND": "CC(=O)Nc1ccc(O)cc1",
    "TESTED_SYSTEM": "antibodies of the invention (antisera generated in response to immunogen of Example 5)",
    "No measurable CR at given concentration [µg/mL]": 1000
  },
  {
    "COMPOUND": "O=C(CCCN1CCC(O)(c2ccc(Cl)cc2)CC1)c1ccc(F)cc1",
    "TESTED_SYSTEM": "antibodies of the invention (antisera generated in response to immunogen of Example 5)",
    "No measurable CR at given concentration [µg/mL]": 10
  },
  {
    "COMPOUND": "CC(C)Cc1ccc(C(C)C(=O)O)cc1 (stereo not drawn)",
    "TESTED_SYSTEM": "antibodies of the invention (antisera generated in response to immunogen of Example 5)",
    "No measurable CR at given concentration [µg/mL]": 1000
  },
  {
    "COMPOUND": "O=C(O)c1ccccc1O",
    "TESTED_SYSTEM": "antibodies of the invention (antisera generated in response to immunogen of Example 5)",
    "No measurable CR at given concentration [µg/mL]": 1000
  }
]

Okay, now this compound:
Please provide the recorded No measurable CR at given concentration for CNCCC[C@@]1(c2ccc(F)cc2)OCc2cc(C#N)ccc21 , tested on antibodies of the invention (antisera generated in response to immunogen of Example 5).
10
